Biological target: human PF4 (Homo sapiens, UniProt P02776)
Construct: PF4 is a 70 amino acid, lysine-rich 7.8 kDa platelet-specific protein; made in house; host or cells: Escherichia coli BL21DE3 pLysS (pT7-7) and/or Drosophila S2 cells
Sequence (P02776 32-101): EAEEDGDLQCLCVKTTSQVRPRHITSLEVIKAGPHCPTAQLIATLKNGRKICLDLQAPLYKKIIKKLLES
Assay: Inhibition of PF4 tetramer formation (BS3 cross-linking, SDS-PAGE)
Type: biochemical
Conditions: read-out: IC50 of PF4 tetramer formation inhibition
reported-metric: IC50 (µM)
The answer is to be given in µM; state only the numeric part.

Past entries and their recorded results:
compound | measurement
O=C(c1ccc2c(c1)C(=O)C(C(=O)Cn1cnnn1)C2=O)c1ccc2c(c1)C(=O)C(C(=O)Cn1cnnn1)C2=O (stereo not drawn) | 4.3
O=C(Cc1ccccc1)C1C(=O)c2ccc(S(=O)(=O)c3ccc4c(c3)C(=O)C(C(=O)Cc3ccccc3)C4=O)cc2C1=O (stereo not drawn) | 6
O=C1c2ccc(Oc3ccc4c(c3)C(=O)C(C(=O)C3CCC3)C4=O)cc2C(=O)C1C(=O)C1CCC1 (stereo not drawn) | 1.74
O=C(c1ccc2c(c1)C(=O)C(C(=O)NCCc1ccccc1)C2=O)c1ccc2c(c1)C(=O)C(C(=O)NCCc1ccccc1)C2=O (stereo not drawn) | 5.75
C[C@H]1C[C@@H](C(=O)C2C(=O)c3ccc(C(=O)c4ccc5c(c4)C(=O)C(C(=O)[C@@H]4C[C@H](C)CN4C(=O)OC(C)(C)C)C5=O)cc3C2=O)N(C(=O)OC(C)(C)C)C1 (stereo partly drawn) | 3.5

Please indicate recorded IC50 of CCCCC(=O)C1C(=O)c2ccc(C(=O)c3ccc4c(c3)C(=O)C(C(=O)CCCC)C4=O)cc2C1=O (stereo not drawn) measured with human PF4 (Homo sapiens, UniProt P02776).
2.4

Param request: IC50 | system human PF4 (Homo sapiens, UniProt P02776) | item CC(C)(C)OC(=O)N[C@@H](Cc1ccccc1)C(=O)C1C(=O)c2ccc(C(=O)c3ccc4c(c3)C(=O)C(C(=O)[C@H](Cc3ccccc3)NC(=O)OC(C)(C)C)C4=O)cc2C1=O (stereo partly drawn)
1.2

Name the recorded IC50 of CC(C)(C)OC(=O)N1CCC[C@H]1C(=O)C1C(=O)c2ccc(-c3ccc4c(c3)C(=O)C(C(=O)[C@@H]3CCCN3C(=O)OC(C)(C)C)C4=O)cc2C1=O (stereo partly drawn) , assay system human PF4 (Homo sapiens, UniProt P02776).
4.2

Report IC50 on human PF4 (Homo sapiens, UniProt P02776) for this entry: O=C1c2ccc(Oc3ccc4c(c3)C(=O)C(C(=O)C3CCCCC3)C4=O)cc2C(=O)C1C(=O)C1CCCCC1 (stereo not drawn)
3

# assay system human PF4 (Homo sapiens, UniProt P02776): give IC50 of O=C(NC1CCC1)C1C(=O)c2ccc(S(=O)(=O)c3ccc4c(c3)C(=O)C(C(=O)NC3CCC3)C4=O)cc2C1=O (stereo not drawn)
1.26

Lab note: record IC50 of COc1ccccc1NC(=O)C1C(=O)c2ccc(S(=O)(=O)c3ccc4c(c3)C(=O)C(C(=O)Nc3ccccc3OC)C4=O)cc2C1=O (stereo not drawn) tested on human PF4 (Homo sapiens, UniProt P02776).
1.05

Hey, just so you know, these numbers are from patent US20250281424A1.
